Assay: Cellular Toxicity (caspase-3) SHSY5Y (AID 657);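 also: cells exposed to compound for 16 hours at 37 °C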
Conditions: SH-SY5Y caspase-3 activation, DMSO zero, 10 µM staurosporine = 100%; series mostly up to 91.7 µM
Activity calls are given as the source filed them. Calls follow the shape of the dose curve; as a rule, active = well fitted activation curve with a large enough effect; inconclusive = small, poorly fitted or top-dose-only effect; inactive = flat fitted curve, though single readings scatter.
ASSAY READOUT: outcome

1. Oc1ccc(Cl)c(Cl)c1Cl	inactive
2. ClCCBr	inactive
3. c1ccc(P(c2ccccc2)c2ccccc2)cc1	inactive
4. CC(=O)NNc1ccccc1	inactive
5. Cc1ccc(N)cc1Cl	inactive
6. Cl/C=C/Cl	inactive
7. CC(=O)[O-].CC(=O)[O-].CC(=O)[O-].[Cr+3]	inactive
8. O=[N+]([O-])c1ccccc1-c1ccccc1	inactive

----------
Measured caspase-3 activation accompanies every entry in the list below.
Assay: Cellular Toxicity (caspase-3) Jurkat (AID 655);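 also: cells exposed to compound for 16 h at 37 °C before reading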
Settings: Jurkat caspase-3 activation, luminescence; at 92.2 µM (top of the series), DMSO = 0%, tamoxifen = 100%
Inconclusive results are not listed.
ASSAY READOUT: caspase-3 activation (%)

1. CNC(=O)O/N=C/C(C)(C)S(C)=O (configuration not stated)	0.627
2. C=CC(=O)OC	0.227
3. COc1ccc(C=O)cc1	-0.692
4. CCCCCCCCCCCCCl	1.16
5. BrCC(Br)C1CCC(Br)C(Br)C1 (configuration not stated)	3.33
6. C=CCCl	0.433
7. COC(=O)Nc1nc2ccccc2[nH]1	10.9
8. CC(C)(OOC(C)(C)c1ccccc1)c1ccccc1	-0.0747
9. CCOP(=S)(OCC)SCCSCC	-2.31
10. N#C/C=C/C#N	-8.24
11. N#CC(O)c1ccccc1 (configuration not stated)	2.09
12. Cc1cccc(N)c1C	0.961
13. N#CCBr	0.425
14. c1ccoc1	0.558
15. O=[N+]([O-])c1ccc(Cl)c(Cl)c1Cl	-0.417
16. [O-][Cl+]O	0.134
17. ClP(Cl)(Cl)(Cl)Cl	0.993

----------
Target: Tumor necrosis factor (Homo sapiens) (UniProt P01375)
Sequence (P01375 whole entry, looked up): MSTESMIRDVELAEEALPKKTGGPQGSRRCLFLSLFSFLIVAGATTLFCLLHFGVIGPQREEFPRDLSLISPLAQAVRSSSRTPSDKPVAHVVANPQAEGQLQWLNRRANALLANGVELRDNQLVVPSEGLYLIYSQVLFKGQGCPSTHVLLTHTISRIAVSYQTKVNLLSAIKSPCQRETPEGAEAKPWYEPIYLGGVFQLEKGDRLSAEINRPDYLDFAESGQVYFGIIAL
Test: qHTS assay to identify small molecules that stimulate Tumor Necrosis Factor-alpha (TNF-alpha) secretion (AID 651757); also: 0% is about no effect
Conditions: Human cells, HTRF 665/615 ratio; series mostly up to 92.2 µM
Results filed as inconclusive are left out. Active and inactive are the calls of the source. Calls come from the whole dose curve; as a rule, active = well fitted curve in the direction sought with a large enough effect in the signal ratio; inconclusive = small, poorly fitted or top-dose-only effect, or a change in a side signal; inactive = no such curve, though single readings can be large or run the other way; the % refers to the signal ratio.
ASSAY READOUT: outcome

1) CCCCOCC1CO1 (centres undefined)	inactive
2) C=CCOCC1CO1 (centres undefined)	inactive
3) CC(C)(COCC1CO1)COCC1CO1 (centres undefined)	inactive
4) COP(=S)(OC)SCn1nnc2ccccc2c1=O	inactive
5) CCCCC(=O)Cl	inactive
6) CCCBr	inactive
7) O=[N+]([O-])c1cc(Cl)c(Cl)cc1Cl	inactive
8) C=CC(=O)OCCO	inactive
9) O=C(O)CCl	inactive

----------
Biological target: Cytochrome P450 3A4 (Homo sapiens) (UniProt P08684)
Sequence (P08684 whole entry, looked up): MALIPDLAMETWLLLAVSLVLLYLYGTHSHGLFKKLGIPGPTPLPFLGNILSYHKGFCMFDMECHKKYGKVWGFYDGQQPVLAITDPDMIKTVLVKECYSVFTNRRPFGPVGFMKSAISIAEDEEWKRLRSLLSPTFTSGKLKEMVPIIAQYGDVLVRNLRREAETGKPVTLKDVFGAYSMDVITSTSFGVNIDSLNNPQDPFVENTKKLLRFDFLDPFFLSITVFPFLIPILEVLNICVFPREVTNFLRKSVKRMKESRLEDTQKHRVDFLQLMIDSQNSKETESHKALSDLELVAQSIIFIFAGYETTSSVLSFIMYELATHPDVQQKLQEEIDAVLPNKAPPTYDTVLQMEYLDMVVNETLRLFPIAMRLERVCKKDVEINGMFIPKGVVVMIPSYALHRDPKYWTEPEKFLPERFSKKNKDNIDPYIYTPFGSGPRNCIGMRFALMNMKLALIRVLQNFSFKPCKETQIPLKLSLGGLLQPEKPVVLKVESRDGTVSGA
Test: qHTS Assay for Activators of Cytochrome P450 3A4 (AID 885); also: nearly all actives have a fitted effect of over 65% in size
Details: recombinant CYP3A4, Luciferin-PPXE luminescence, 60 min; series mostly up to 57.1 µM
Calls of active or inactive are those of the source. Calls come from the whole dose curve; as a rule, active = well fitted activation curve with a large enough effect; inconclusive = small, poorly fitted or top-dose-only effect; inactive = no such curve, though single readings can be large or run the other way.
ASSAY READOUT: activity change, positive = activation

1) C[C@@H]1Cc2cc3c(cc2C(c2ccc(N)cc2)=NN1)OCO3	inactive
2) C[n+]1c(/C=C\c2ccc(O)c3ncccc23)[se]c2ccccc21	-31.7% [at 11.4 µM] (inactive)
3) C=C(Cl)CSC(=S)N(CC)CC	inactive
4) C[C@]12CC[C@H](O)C[C@@H]1CC[C@H]1[C@H]2CC[C@]2(C)[C@H](C(=O)CO)CC[C@@H]12	inactive
5) COP(=S)(OC)SCn1nnc2ccccc2c1=O	inactive
6) C[C@H](CN(C)C)C(C#N)(c1ccccc1)c1ccccc1	-41.5% [at 11.4 µM] (inactive)
7) Cc1ccc(N)cc1Cl	inactive
8) N[C@H](Cc1ccc2oc3cc(=O)c4ccccc4c-3nc2c1)C(=O)O	-32.5% [at 11.4 µM] (inactive)
9) COc1ccc2c(c1O)-c1cccc3c1[C@H](C2)N(C)CC3	inactive
10) Nc1cccc2ccccc12	inactive
11) COc1ccc2c(c1)[C@]13CCCC[C@@H]1[C@H](C2)NCC3	inactive
12) Oc1cc(Cl)ccc1Cl	inactive
13) Clc1ccc(C(Cl)(Cl)Cl)c(Cl)c1	inactive
14) C[C@@]12CC[C@H]3[C@@H](CC[C@@H]4C[C@H](O)CC[C@]43C)[C@H]1CC[C@H]2O	inactive
15) CCOP(=S)(OCC)SCCSCC	inactive
16) Nc1ccc(Cc2ccc(N)c(Cl)c2)cc1Cl	inactive
17) Oc1ccc2c3c1O[C@@H]1c4[nH]c5c(c4C[C@@]4(O)[C@@H](C2)N(CC2CC2)CC[C@]314)C[C@]1(O)[C@@H]2Cc3ccc(O)c4c3[C@@]1(CCN2CC1CC1)[C@H]5O4	inactive
18) Nc1cc(Cl)cc(Cl)c1	inactive
19) C[C@H](CC(C#N)(c1ccccc1)c1ccccc1)N1CCCCC1	-53% [at 11.4 µM] (inactive)
20) C[Se]C[C@@H](N)C(=O)O	inactive
21) COc1cc2c(cc1OC)[C@]13CC[N@+]4(C)CC5=CCO[C@H]6CC(=O)N2[C@@H]1[C@@H]6[C@@H]5C[C@]34O	-28.5% [at 11.4 µM] (inactive)
22) Oc1cc(Cl)c(Cl)c(Cl)c1	inactive
23) Nc1ccc(-c2ccccc2)cc1	inactive
24) c1cc(CCN2CCCCC2)ccn1	-36% [at 11.4 µM] (inactive)
